Listing: pIC50 of selected compounds
biological target: HSF-PLA2 (Homo sapiens); construct: extracellular enzyme obtained from human synovial fluid (HSF-PLA2); assay: Assay for Inhibition of HSF-PLA2 In Vitro; settings: read-out: Inhib of HSF-PLA2 IC50
Sequence (P14555 21-144): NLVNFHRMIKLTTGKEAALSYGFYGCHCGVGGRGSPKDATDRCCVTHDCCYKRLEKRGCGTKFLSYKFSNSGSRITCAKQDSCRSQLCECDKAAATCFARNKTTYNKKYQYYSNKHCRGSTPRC
Kindly note that pIC50 refers to -log10 of the concentration in mol/L and answer with the value alone.

Compound: CCCCCCCCCCCCCCCCCCOc1cc(OC(=O)C23CC4CC(CC(C4)C2)C3)cc(N(CC(=O)O)CC(=O)O)c1 [Example 58f]
Test Target: HSF-PLA2 (Homo sapiens)
pIC50: 6.52

Please turn your attention to the following entry.
Which pIC50 value belongs to CCCCCCCCCCCCCCCCCCOc1cc(OCCCOc2ccc(OC)cc2)cc(N(CC(=O)O)CC(=O)O)c1 [Example 58k] ?
7.30
